The following variants are shown together with reported self-cleavage values.
B1: Twister Ribozyme (parent)
chain: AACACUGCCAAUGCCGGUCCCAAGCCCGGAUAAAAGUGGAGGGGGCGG

Variants of: B1
Experimental Details: self-cleavage, relative activity (ratio to wild type); higher = more cleavage; co-transcriptional

Mutation Spec: G29U G43A
self-cleavage: 0.23
--
Mutation Spec: C8A G24A
self-cleavage: 0.18
--
Mutation Spec: A4G U12A
self-cleavage: 1.17
--
Mutation Spec: G16A G42A
self-cleavage: 0.358
--
Mutation Spec: C5U A32U
self-cleavage: 0.812
--
Mutation Spec: C5A C9U
self-cleavage: 0.0659
--
Mutation Spec: G45U G47A
self-cleavage: 0.771
--
Mutation Spec: U12G C25A
self-cleavage: 0.256
--
Mutation Spec: G24U A30U
self-cleavage: 0.109
--
Mutation Spec: C15U G47U
self-cleavage: 0.8
--
Mutation Spec: A35C U37A
self-cleavage: 0.702
--
Mutation Spec: A22U C26G
self-cleavage: 0.0767
--
Mutation Spec: G17A
self-cleavage: 0.783
--
Mutation Spec: C14A G41C
self-cleavage: 0.294
--
Mutation Spec: C27U G44A
self-cleavage: 0.84
--
Mutation Spec: C5A C46U
self-cleavage: 0.681
--
Mutation Spec: A2C G45C
self-cleavage: 0.0767
--
Mutation Spec: G7C U37A
self-cleavage: 0.0472
--
Mutation Spec: G16C G44C
self-cleavage: 0.649
--
Mutation Spec: G41A G47A
self-cleavage: 0.278
--
Mutation Spec: C21G C26G
self-cleavage: 0.0411
--
Mutation Spec: G7U C15G
self-cleavage: 0.0331
